- assay system: Carbonic anhydrase 2 (Homo sapiens) (UniProt P00918)
- assay text: compounds binding carbonic anhydrase 2 – biochemical, small-molecule microarray, Alexa647-labelled CAII, profiling panel (AID 1122)
- test settings: CAII-A647 binding fluorescence, higher = more signal
Answer each item with its documented composite z-score.

Known composite z-score results, listed for orientation:
C=CCOC(=O)[C@@H]1[C@H]2C(=O)O[C@H](c3ccccc3)[C@H](c3ccccc3)N2[C@H](c2ccc(OCCOC(=O)[C@H]3C[C@H]4C(=O)N[C@@H](CC(C)C)C(=O)N4[C@H]3c3cccc(OCCO)c3)cc2)[C@@]12C(=O)Nc1ccc(I)cc12 :: 0.35
COC(=O)[C@@]1(Cc2ccc(F)cc2)[C@H]2c3cc(C(=O)N(C)C)n(Cc4ccccn4)c3C[C@H]2CN1C(=O)c1ccccc1 :: 0.908
C=C(C(=O)CC[C@@H](OC(=O)c1cccnc1)c1ccc(CO)o1)C(C)C :: 0.614
O=C1O[C@H](c2ccccc2)[C@H](c2ccccc2)N2[C@H]1[C@@H](C(=O)NC[C@H](O)c1ccccc1)[C@]1(C(=O)Nc3ccc(C#CC4=CCCCC4)cc31)[C@H]2c1ccc(O)cc1 :: 0.397
O=S(=O)(NCCCO)c1ccc(Br)cc1 :: 0.62
CCCNC(=O)[C@@]1(C)c2ccccc2C(=O)N(C(C)C)[C@H]1c1ccc(CO)cc1 :: 0.673

# evaluate next
q: Please tell me: composite z-score of "O=C1O[C@H](c2ccccc2)[C@H](c2ccccc2)N2[C@H]1[C@@H](C(=O)Nc1nc3ccccc3s1)[C@]1(C(=O)Nc3ccc(C#CC4=CCCCC4)cc31)[C@H]2c1ccc(OCCO)cc1" , system Carbonic anhydrase 2 (Homo sapiens) (UniProt P00918)?
a: 0.761
